biological target: SARS-CoV-2 spike receptor-binding domain (RBD) (SARS-CoV-2, UniProt P0DTC2 319-541); assay: indirect ELISA on coated RBD ('ELISA affinity')
quantity: IC50 (nM)
Answers are plain numbers, in nM.

INSERT INTO results (binder, measured_value) VALUES
  ('Nb42 (VHH) VHH: HVQLVESGGGLVQAGESLRLSCVASGSIFSINAMGWFRQAPGKQRELVASISNIGTTIYAESVKGRFTISRDNAKNTADLQMNSLKPEDTAIYYCNLRQGCSYNGCDEYWGQGTQVTVSS', 0.66),
  ('Nb32 (VHH) VHH: DVQLVESGGGLVQAGGSLRLSCAASGRTFSSDTMDMGWFRQAPGKEREFVALHSWNGGKTYYADSVKGRFTISRDNAKNTLYLQMNNLKPEDTAVYYCAAETYTLYEKDSSWGYWGQGTQVTVSS', 2.17),
  ('Nb107 (VHH) VHH: HVQLVESGGGLVQAGGSLRLSCAASGRAIGIHRMAWFRQAPGKERAFVAAIQWTGDMPTYADSLKGRFTISADNAKNTVSLQMTSLKPDDTAVYYCAARSATTALYDYWGQGTQVTVSS', 0.76);

Let us move to another entry and its IC50.
*Q* Name the recorded IC50 for Nb68 (VHH) VHH: QVQLVESGGGLVQAGGSLRLSCAASGGTLRSYNMGWFRQGPGKEREFVAAISWTGLGTYYGDSVKGRFTISRDVIKNTLYLQMDSLKPEDTAIYYCAADSSTSRLHSAGSDYRYWGQGTQVTVSS .
*A* 6.11
